These entries and their values trace back to paper PMC11003484.

biological target: HEV helicase (Hepatitis E virus genotype 1); construct: The HEV helicase (735 bp) was amplified from the HEV (genotype 1; AF444002.1) cDNA clone; made in house; host or cells: E. coli BL21(DE3), pET28a; solubilised from inclusion bodies with NLS; assay: biochemical; assay type: biochemical; settings: read-out: IC50 (µM) NTPase activity
Sequence (P33424 960-1204): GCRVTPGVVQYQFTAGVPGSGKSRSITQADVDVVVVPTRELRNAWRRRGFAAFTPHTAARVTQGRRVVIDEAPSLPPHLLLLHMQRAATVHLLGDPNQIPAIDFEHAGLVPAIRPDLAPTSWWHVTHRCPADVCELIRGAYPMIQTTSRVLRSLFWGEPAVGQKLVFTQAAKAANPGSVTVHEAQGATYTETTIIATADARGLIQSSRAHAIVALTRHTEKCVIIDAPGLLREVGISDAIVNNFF
Where a name gives a salt, the structure may show the parent alone.
Recorded measurements of IC50, one per entry
attribute measured: IC50 (µM)

• COc1cccc2c1C(=O)c1c(O)c3c(c(O)c1C2=O)C[C@@](O)(C(C)=O)C[C@@H]3O[C@H]1C[C@H](N)[C@H](O)[C@H](C)O1 [Daunorubicin HCL, daunorubicin HCL] = 7.66
• C[C@]12C=CC(=O)C=C1CC[C@@H]1[C@@H]2[C@@H](O)C[C@@]2(C)[C@H]1CC[C@]2(O)C(=O)CO [Prednisolone] = 4.2
• O=C(O)c1cc(=O)c2c(OCC(O)COc3cccc4oc(C(=O)O)cc(=O)c34)cccc2o1 [Disodium cromoglycate, disodium cromoglycate] = 14.8
